# target_of_assay: KEAP1 C151 (Homo sapiens, UniProt Q14145)
# Construct: treating 500 μg of cell lysate generated from MDA-MB-468 breast cancer cells with DMSO or compound; endogenous in cells
# Sequence (Q14145 whole entry): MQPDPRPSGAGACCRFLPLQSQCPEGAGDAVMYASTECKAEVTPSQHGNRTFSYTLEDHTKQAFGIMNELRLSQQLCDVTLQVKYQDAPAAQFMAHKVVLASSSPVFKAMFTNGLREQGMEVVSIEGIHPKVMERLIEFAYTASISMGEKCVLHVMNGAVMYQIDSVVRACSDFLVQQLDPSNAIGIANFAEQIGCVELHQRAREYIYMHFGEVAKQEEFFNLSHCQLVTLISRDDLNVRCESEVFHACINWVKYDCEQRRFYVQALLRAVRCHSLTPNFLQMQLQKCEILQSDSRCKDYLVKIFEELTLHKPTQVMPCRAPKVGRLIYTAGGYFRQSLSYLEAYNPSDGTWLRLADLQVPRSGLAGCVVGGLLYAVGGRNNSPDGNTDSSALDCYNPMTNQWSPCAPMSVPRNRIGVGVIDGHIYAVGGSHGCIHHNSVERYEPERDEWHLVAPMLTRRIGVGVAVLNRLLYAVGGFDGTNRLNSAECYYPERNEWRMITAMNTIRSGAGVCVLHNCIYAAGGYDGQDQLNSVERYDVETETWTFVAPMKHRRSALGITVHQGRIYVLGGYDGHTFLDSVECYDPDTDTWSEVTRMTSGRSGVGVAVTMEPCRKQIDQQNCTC
# test_summary: Nrf2 TMT measurement: in vitro TE50 for KEAP1 C151 (IA-DTB competition, targeted TMT mass spectrometry) in MDA-MB-468 cell lysate
# experimental_context: in vitro target engagement of KEAP1 C151, targeted TMT, read-out: KEAP1_C151 TE50
pIC50: −log10 of the molar value.

| molecule | readout_qualifier | pIC50 |
| --- | --- | --- |
| C=CC(=O)N1CCS(=O)(=O)CC1c1cc(Cl)cc(-c2nccc(N)n2)c1 (single isomer, unassigned) | = | 7.09 |
| C=CC(=O)N1CCOCC1c1cc(Cl)cc(-c2nc[nH]n2)c1 (single isomer, unassigned) | = | 6.70 |
| C=CC(=O)N1[C@H](c2cc(Cl)cc(-c3ncc(N)cn3)c2)COC[C@H]1C(F)F (single isomer, unassigned) | > | 8.19 |
| C=CC(=O)N1CC2(CCCC2)OCC1(C)c1cc(Cl)cc(-c2ncnc(N)n2)c1 (single isomer, unassigned) | = | 6.36 |
| C=CC(=O)N1CCOCC1c1cc(Cl)cc(-c2cc(F)cc(C(N)=O)c2)c1 (single isomer, unassigned) | = | 7.57 |
| C=CC(=O)N1CC(C)(C)OCC1c1cc(Cl)nc(-c2cc(N)ncn2)c1 (single isomer, unassigned) | = | 7.51 |
| C=CC(=O)N1CCOC[C@H]1c1cc(Cl)cc(-c2nc(O)n[nH]2)c1 (single isomer, unassigned) | = | 6.42 |
| C=CC(=O)N1CCOC[C@H]1c1cc(Cl)cc(-c2nc(N)nc(N)n2)c1 (single isomer, unassigned) | = | 7.92 |
| C=CC(=O)N1CCOC[C@H]1c1cc(Cl)cc(-c2nc(N)nc(NC)n2)c1 (single isomer, unassigned) | = | 7.80 |
| C=CC(=O)N1CCOCC12COc1c(-c3ccc(F)c(C(N)=O)c3)cc(Cl)cc12 (single isomer, unassigned) | = | 6.11 |
| C=CC(=O)N1C[C@H](C)OC[C@H]1c1cc(Cl)cc(-c2ccc(F)c(C(N)=O)c2)c1 (single isomer, unassigned) | = | 7.80 |
| C=CC(=O)N1CCOC[C@H]1c1cc(Cl)cc(-c2cccc(NC(C)=O)c2)c1 (single isomer, unassigned) | = | 7.97 |
| C=CC(=O)N1CCOCC1c1cc(Cl)cc(-c2cnn(C)c(=O)c2)c1 (single isomer, unassigned) | = | 7.18 |

----------
# target_of_assay: KEAP1 C151 (Homo sapiens)
# Construct: treating 500 μg of cell lysate generated from MDA-MB-468 breast cancer cells with DMSO or compound; endogenous in cells
# test_summary: Nrf2 TMT measurement: in vitro TE50 for KEAP1 C151 (IA-DTB competition, targeted TMT mass spectrometry) in MDA-MB-468 cell lysate
# experimental_context: in vitro target engagement of KEAP1 C151, targeted TMT, read-out: KEAP1_C151 TE50
# binning rule on IC50: class 0 (below 40 nM), class 1 (40 nM to below 100 nM), class 2 (100 nM or more)

| compound | class_label |
| --- | --- |
| C=CC(=O)N1CCOC[C@H]1c1cc(Cl)cc(-c2cnc(F)c(N)n2)c1 (single isomer, unassigned) | class 1 |
| C=CC(=O)N1CCOCC1c1cc(Cl)cc(-c2ccn3ccnc3n2)c1 (single isomer, unassigned) | class 0 |
| C=CC(=O)N1CCOC[C@H]1c1cc(Cl)cc(-c2cnc(N)o2)c1 (single isomer, unassigned) | class 2 |
| C=CC(=O)N1CCOCC1c1cc(Cl)nc(-c2cc[nH]c(=O)c2)c1 (single isomer, unassigned) | class 2 |
| C=CC(=O)N1CCOC[C@H]1c1cc(Cl)cc(C2CNC(=O)CO2)c1 (single isomer, unassigned) [Compound 231] | class 2 |
| C=C(C(=O)N1CCOC[C@H]1c1cc(Cl)cc(-c2ncnc(N)n2)c1)C(F)(F)F (single isomer, unassigned) | class 2 |
| C=CC(=O)N1CCOCC1c1cc(Cl)nc(-c2cc(C#N)ncn2)c1 (single isomer, unassigned) | class 1 |
| C=CC(=O)N1CCS(=O)(=O)CC1c1cc(Cl)cc(-c2ncc(N)cn2)c1 (single isomer, unassigned) | class 1 |
| C=CC(=O)N1CCN(C(C)=O)C[C@H]1c1cc(Cl)cc(-c2ncccn2)c1 (single isomer, unassigned) | class 1 |
| C=CC(=O)N1CC(C)(C)OC[C@H]1c1cc(Cl)cc(-c2ncc(F)cn2)c1 (single isomer, unassigned) | class 1 |
| C=CC(=O)N1CCOCC1c1cc(Cl)cc(-c2ccnc(OC)n2)c1 (single isomer, unassigned) | class 1 |
| C=CC(=O)N1CCOC[C@H]1c1cc(Cl)cc(-c2cnc(N)c(F)n2)c1 | class 0 |
| C=CC(=O)N1CCOC[C@H]1c1cc(Cl)cc(-c2ncc(C)cn2)c1 (single isomer, unassigned) | class 0 |
| C=CC(=O)N1CCOC[C@H]1c1cc(Cl)cc(-c2ccnc(OC)c2)c1 (single isomer, unassigned) | class 0 |
| C=CC(=O)N1CCOC[C@H]1c1cc(Cl)cc(C2CNC(=S)N(C)C2)c1 (single isomer, unassigned) [Compound 227] | class 1 |
| C=CC(=O)N1CCOC[C@H]1c1cc(Cl)cc(-c2ccc(N)nn2)c1 (single isomer, unassigned) | class 2 |
| C=CC(=O)N1CCOC[C@H]1c1cc(Cl)cc(-c2cnc(N)c(OC)n2)c1 (single isomer, unassigned) | class 1 |
| C=CC(=O)N1CC2(CC2)OCC1c1cc(Cl)cc(-c2ccnc(C(N)=O)c2)c1 (single isomer, unassigned) | class 0 |
| C=CC(=O)N1CCOC[C@H]1c1cc(Cl)cc(C2CCNC(=O)N2)c1 (single isomer, unassigned) | class 2 |
| C=CC(=O)N1CC2(CC2)OCC1c1cc(Cl)cc(-c2ccnc(N)n2)c1 (single isomer, unassigned) | class 1 |
| C=CC(=O)N1CC2(COC2)C1c1cc(Cl)cc(-c2ccnc(N)n2)c1 (single isomer, unassigned) | class 2 |
| C=CC(=O)N1CCOC[C@H]1c1cc(Cl)cc(-c2nnn(C)n2)c1 (single isomer, unassigned) | class 1 |
| C=CC(=O)N1CCOC[C@H]1c1cc(Cl)cc(-c2nccc(OC)n2)c1 (single isomer, unassigned) | class 0 |
| C=CC(=O)N1CCOCC1c1cc(C#N)cc(-c2ncccn2)c1 (single isomer, unassigned) | class 1 |
| C=CC(=O)N1CCS(=O)(=O)CC1c1cc(Cl)cc(-c2ncnc(N)n2)c1 (single isomer, unassigned) [Compound 206] | class 2 |
